Known TGI of a selection of compounds
# System: SK-OV-3 ovarian
# MEASUREMENT DESCRIPTION: NCI tumour cell line growth inhibition, 48 h

The examples below pair each entry with its known result.
{"columns": ["COMPOUND", "TGI"],
 "data": [
  ["Nc1ccc(-c2nc3ccc4[nH]ncc4c3c3c2CCCC3)cc1F", "2.77 µM"],
  ["Nc1nc2c(ncn2C2OC(CO)C(O)C2N)c(=O)[nH]1 (centres undefined)", "> 100 µM"],
  ["O=C(O)C(CCc1ccccn1)c1ccccc1 (centres undefined)", "> 100 µM"]
]}

Turning to the following compound.
## Input Need TGI, item O=C(C1=C(C(=O)c2ccccc2)SC2(S1)C(C(=O)c1ccccc1)=C(C(=O)c1ccccc1)Sc1c2ssc1=O)c1ccccc1
## Output > 100 µM

====

Known TGI of a selection of compounds
# System: HOP-92 NSCLC
# MEASUREMENT DESCRIPTION: NCI tumour cell line growth inhibition, 48 h

The examples below pair each entry with its known result.
{"columns": ["COMPOUND", "ASSAY RESULT"],
 "data": [
  ["Cc1ccc2nc3c(C)c(Cl)c(=O)cc-3sc2c1", "> 92.3 µM"],
  ["C/C(O)=C(\\C=N\\C(N)=S)C(=O)Nc1ccccc1C", "> 100 µM"],
  ["CC1(C)CCC[C@]23C(=O)O[C@](O)(C(=O)C4=C[C@@](C)(/C=C/CCCc5ccc6ccc7cccc8ccc5c6c78)CC[C@@]42O)[C@@H]13", "0.302 µM"]
]}

## Input // map Cc1cc(NS(=O)(=O)c2ccc(Nc3c4ccccc4nc4c(C(=O)Nc5ccc(S(=O)(=O)N=C(N)N)cc5)cccc34)cc2)no1 to recorded TGI (system: HOP-92 NSCLC)
## Output > 100 µM

## Input // map CN(C)c1ccc(/C=C2\C[C@H]3[C@@H]4CC=C5C[C@@H](N6CCCC6)CC[C@]5(C)[C@H]4CC[C@]3(C)[C@H]2O)cc1 to recorded TGI (system: HOP-92 NSCLC)
## Output 4.98 µM

## Input // map O=c1[nH]c(=O)n(C2OC(COP(=O)(O)OP(=O)(O)O)C(O)C2O)cc1F (stereo unspecified) to recorded TGI (system: HOP-92 NSCLC)
## Output > 50 µM

## Input // map CN(C)CCOC(=O)COc1ccc(Cl)cc1 to recorded TGI (system: HOP-92 NSCLC)
## Output > 100 µM

## Input // map CCSc1oc(-c2ccccc2)nc1[P+](c1ccccc1)(c1ccccc1)c1ccccc1 to recorded TGI (system: HOP-92 NSCLC)
## Output 0.551 µM

## Input // map COC(=O)C1=C(O)C(C(=O)OC)[C@@]2(O)[C@@H](C(=O)OC)C(c3ccc(OC(=O)/C(=C/c4ccc(Cl)cc4)c4ccc(Cl)cc4)cc3)C[C@@H]1[C@@H]2C(=O)OC (stereo partly specified) to recorded TGI (system: HOP-92 NSCLC)
## Output > 100 µM

## Input // map Cc1cccc(NC(=O)C(=O)C2C(=O)NC(=O)NC2=O)c1C to recorded TGI (system: HOP-92 NSCLC)
## Output > 100 µM

## Input // map Cc1csc2c1C(=O)c1ccsc1C2=O to recorded TGI (system: HOP-92 NSCLC)
## Output 12.5 µM

## Input // map C/C(=N\NC(N)=O)C(CN1CCCCC1)C(c1ccccc1)c1c(O)c2ccccc2oc1=O (stereo unspecified) to recorded TGI (system: HOP-92 NSCLC)
## Output > 100 µM

## Input // map CC(C)[C@@H]1C=C(c2ccccc2)c2ccccc2C1C(C#N)(C#N)C(C)C (stereo partly specified) to recorded TGI (system: HOP-92 NSCLC)
## Output > 100 µM

## Input // map N#CCCC1C(C#N)C2CC1C1C3C=CC(C3)C21 (stereo unspecified) to recorded TGI (system: HOP-92 NSCLC)
## Output > 100 µM

Numbers sourced from PubChem BioAssay (NCI).
